Quick reference for GI50 among some compounds
# Test system: DU-145
# Test protocol: In vitro growth inhibition of DU-145 (human prostate carcinoma) cell line.
# Type: functional
Please state the figure in µg/mL; there is no need to write the unit.

# example entries with known answers
In: Consider the compound shown here: COc1cc(/C=C\c2ccc(OP(=O)(OCc3ccccc3)OCc3ccccc3)cc2)cc(OC)c1 What is its recorded GI50?
Out: 35.6

In: Okay, and COc1ccc(/C=C\c2cc(O)cc(O)c2)cc1 ?
Out: 10.6

In: Okay, and COc1cc(O)cc(C(=O)c2ccc(O)cc2)c1 ?
Out: 16.5

In: Okay, and COc1ccc(C(O)c2cc(OC)cc(OC)c2)cc1 (centres undefined) ?
Out: 23.2

In: Okay, and COc1ccc(C(=O)c2cc(O)cc(OC)c2)cc1 ?
Out: 12.6

In: Okay, and COc1ccc(C(=O)c2cc(O)cc(O)c2)cc1 ?
Out: 15

In: Okay, and Oc1ccc(/C=C\c2cc(O)cc(O)c2)cc1 [CIS-RESVERATROL] ?
Out: 10.2

In: Okay, and COc1ccc(/C=C/c2cc(OC)cc(OC)c2)cc1 ?
Out: 1.5

In: Okay, and COc1ccc(/C=C/c2cc(O)cc(O)c2)cc1 ?
Out: 2.7

In: Okay, and COc1cc(/C=C\c2ccc(O)cc2)cc(OC)c1 ?
Out: 2.3

***
In: Consider the compound shown here: COc1cc(OC)cc(C(O)c2ccc(O)cc2)c1 (centres undefined) What is its recorded GI50?
Out: 5.8

In: Okay, and COc1cc(OC)cc(C(=O)c2ccc(O)cc2)c1 ?
Out: 4.1

In: Okay, and O=C(c1ccc(O)cc1)c1cc(O)cc(O)c1 ?
Out: 15

In: Okay, and COc1cc(/C=C/c2ccc(O)cc2)cc(OC)c1 ?
Out: 2.7

###

Quick reference for GI50 among some molecules
# Test system: NCI-H460
# Test protocol: Cell growth inhibition of lung-NSC NCI-H460 cells, expressed as 50% reduction in the net protein increase
# Format: functional
# Condition details: Homo sapiens
Please state the figure in ng/mL; there is no need to write the unit.

In: Query for NCI-H460: what GI50 does the record show for COc1ccc(C(=O)c2cc(OC)cc(OC)c2)cc1 ?
Out: 530

In: Okay, and COc1ccc(/C=C\c2cc(OC)cc(OC)c2)cc1 ?
Out: 2.8

In: Okay, and COc1ccc(/C=C\c2cc(OC)c(OC)c(OC)c2)cc1O ?
Out: 0.6

Moving on to the next molecule.
In: Query for NCI-H460: what GI50 does the record show for COc1ccc(C(=O)c2cc(OC)c(OC)c(OC)c2)cc1O ?
Out: 5.7

###

Quick reference for log10(GI50) among some compounds
# Tested on: MCF7
# Test protocol: Cell growth inhibition of breast MCF-7 cells, expressed as 50% reduction in the net protein increase
# Type: functional
# Condition details: Homo sapiens
In our notation, the value equals log10 of GI50 in µg/mL.

In: Consider the compound shown here: COc1cc(/C=C\c2ccc(O)cc2)cc(OC)c1 What is its recorded log10(GI50)?
Out: 0.48

***
In: Consider the compound shown here: Oc1ccc(/C=C\c2cc(O)cc(O)c2)cc1 [CIS-RESVERATROL] What is its recorded log10(GI50)?
Out: 1.17

In: Okay, and COc1cc(OC)cc(C(=O)c2ccc(O)cc2)c1 ?
Out: 0.34

In: Okay, and COc1ccc(C(=O)c2cc(O)cc(OC)c2)cc1 ?
Out: 1.15

In: Okay, and COc1cc(OC)cc(C(O)c2ccc(O)cc2)c1 (configuration not stated) ?
Out: 0.30

In: Okay, and COc1cc(/C=C/c2ccc(O)cc2)cc(OC)c1 ?
Out: 0.36

In: Okay, and COc1ccc(/C=C/c2cc(O)cc(O)c2)cc1 ?
Out: 0.53

In: Okay, and COc1cc(O)cc(C(=O)c2ccc(O)cc2)c1 ?
Out: 1.43

In: Okay, and O=C(c1ccc(O)cc1)c1cc(O)cc(O)c1 ?
Out: 1.49

In: Okay, and COc1cc(/C=C\c2ccc(OP(=O)(OCc3ccccc3)OCc3ccccc3)cc2)cc(OC)c1 ?
Out: 0.95

In: Okay, and COc1ccc(C(=O)c2cc(O)cc(O)c2)cc1 ?
Out: 1.34

In: Okay, and COc1ccc(/C=C\c2cc(O)cc(O)c2)cc1 ?
Out: 1.10

###

# Tested on: P388
# Test protocol: In vitro inhibition of P388 (murine leukemia) cell proliferation.
# Assay type: functional
# Condition details: Mus musculus, read-out: ED50 (the source's name)
Exam item: assign rule met to entries whose EC50 is below 10 µg/mL and rule not met to entries at or above 10 µg/mL. Note that a value of exactly 10 µg/mL receives rule not met.

Solved entries (count: 8):
In: Would you kindly verify if EC50 of Oc1ccc(/C=C\c2cc(O)cc(O)c2)cc1 [CIS-RESVERATROL] is strictly less than 10 µg/mL?
Out: rule not met

In: Okay, and COc1ccc(/C=C/c2cc(OC)cc(OC)c2)cc1 ?
Out: rule met

In: Okay, and Oc1ccc(/C=C/c2cc(O)cc(O)c2)cc1 ?
Out: rule met

In: Okay, and COc1cc(/C=C/c2ccc(O)cc2)cc(OC)c1 ?
Out: rule met

In: Okay, and COc1ccc(/C=C\c2cc(O)cc(OC)c2)cc1 ?
Out: rule met

In: Okay, and COc1ccc(/C=C/c2cc(O)cc(O)c2)cc1 ?
Out: rule not met

In: Okay, and COc1cc(O)cc(C(=O)c2ccc(O)cc2)c1 ?
Out: rule not met

In: Okay, and COc1ccc(/C=C/c2cc(O)cc(OC)c2)cc1 ?
Out: rule not met

***
In: Would you kindly verify if EC50 of COc1cc(/C=C\c2ccc(O)cc2)cc(OC)c1 is strictly less than 10 µg/mL?
Out: rule met

In: Okay, and COc1cc(OC)cc(C(O)c2ccc(O)cc2)c1 (configuration not stated) ?
Out: rule not met

In: Okay, and COc1ccc(C(=O)c2cc(O)cc(OC)c2)cc1 ?
Out: rule not met

In: Okay, and COc1ccc(/C=C\c2cc(O)cc(O)c2)cc1 ?
Out: rule met

In: Okay, and COc1ccc(C(O)c2cc(OC)cc(OC)c2)cc1 (configuration not stated) ?
Out: rule not met

In: Okay, and O=C(c1ccc(O)cc1)c1cc(O)cc(O)c1 ?
Out: rule not met

In: Okay, and COc1cc(OC)cc(C(=O)c2ccc(O)cc2)c1 ?
Out: rule not met

In: Okay, and COc1ccc(C(=O)c2cc(O)cc(O)c2)cc1 ?
Out: rule not met

In: Okay, and COc1cc(/C=C\c2ccc(OP(=O)(OCc3ccccc3)OCc3ccccc3)cc2)cc(OC)c1 ?
Out: rule met

###

Quick reference for MIC among some molecules
# Test system: Streptococcus pneumoniae
# Test protocol: The minimum inhibitory concentration (MIC) that inhibits all visible growth of the Streptococcus pneumoniae (bacteria)
# Assay type: functional
Please state the figure in µg/mL; there is no need to write the unit.

# example entries with known answers
In: Query for Streptococcus pneumoniae: what MIC does the record show for COc1cc(OC)cc(C(=O)c2ccc(O)cc2)c1 ?
Out: 64

In: Okay, and COc1cc(O)cc(C(=O)c2ccc(O)cc2)c1 ?
Out: 64

In: Okay, and COc1cc(OC)cc(C(O)c2ccc(O)cc2)c1 (stereo not given) ?
Out: 16

***
In: Query for Streptococcus pneumoniae: what MIC does the record show for O=C(c1ccc(O)cc1)c1cc(O)cc(O)c1 ?
Out: 64

In: Okay, and COc1cc(/C=C\c2ccc(O)cc2)cc(OC)c1 ?
Out: 16

###

Quick reference for EC50 among some compounds
# Tested on: P388
# Test protocol: Evaluated for cell growth inhibition of the mouse leukemia P388 cells in 10% horse serum/Fisher media
# Type: functional
# Condition details: read-out: ED50 (the source's name)
Please state the figure in µg/mL; there is no need to write the unit.

# example entries with known answers
In: Consider the compound shown here: COc1ccc(C(=O)c2cc(OC)cc(OC)c2)cc1 What is its recorded EC50?
Out: 1.23

In: Okay, and COc1ccc(C(=O)c2cc(OC)c(OC)c(OC)c2)cc1O [PHENSTATIN] ?
Out: 0.0033

In: Okay, and COc1ccc(/C=C\c2cc(OC)c(OC)c(OC)c2)cc1O [COMBRETASTATIN A4] ?
Out: 0.0003

***
In: Consider the compound shown here: COc1ccc(/C=C\c2cc(OC)cc(OC)c2)cc1 [8Z-3,4',5-TRIMETHOXYSTILBENE] What is its recorded EC50?
Out: 0.0262

Sourced from ChEMBL document CHEMBL1135463
